target_under_test: UniProt P28335
Sequence (P28335 33-458): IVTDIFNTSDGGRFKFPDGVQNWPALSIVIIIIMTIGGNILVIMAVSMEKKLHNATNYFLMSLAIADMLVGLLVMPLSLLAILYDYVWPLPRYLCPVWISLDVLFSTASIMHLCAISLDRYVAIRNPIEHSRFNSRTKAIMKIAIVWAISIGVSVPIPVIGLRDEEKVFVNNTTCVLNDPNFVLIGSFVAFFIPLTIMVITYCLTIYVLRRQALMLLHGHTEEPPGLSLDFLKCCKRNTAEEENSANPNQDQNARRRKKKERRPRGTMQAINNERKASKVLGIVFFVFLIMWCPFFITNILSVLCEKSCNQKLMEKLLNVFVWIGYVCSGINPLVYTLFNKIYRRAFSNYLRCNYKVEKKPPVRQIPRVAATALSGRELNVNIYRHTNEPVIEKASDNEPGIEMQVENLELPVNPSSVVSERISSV
assay_method_text: radioligand competition binding
condition_set: read-out: [drawing 1] / In vitro; Cheng-Prusoff; details in supplement
experimental_readout: Ki
Your answer should be a number followed by the unit of measure.

# input compound: CN(C)CCC=C1c2ccccc2C=Cc2ccccc21 ; wanted: its Ki
57 nM
